Test system: MDA-MB-435
assay summary: NCI tumour cell line growth inhibition, 48 h
Active and inactive are the calls of the source. Rule as the data show it: active = GI50 up to about 1.1 µM and inactive = higher.
Could you please pick one outcome from this set? active, inactive

These solved cases illustrate the format of a correct answer.
compound | group
CCN1C(=O)C(=C/C=C/c2ccc(OC)cc2)C(=O)N(CC)C1=S | inactive
N#Cc1c(O)c(/C=N/c2ncccn2)c(=O)n2c1[nH]c1ccccc12 | inactive
CN(NC1=NCCO1)c1ccc2ccccc2c1 | inactive
O=C(NNC(=S)Nc1ccccc1)c1cc(-c2ccccc2)nc2ccccc12 | inactive
Cc1ccc(S(=O)(=O)Nn2c(O)c(C#N)c(-c3ccc(N(C)C)cc3)c(C#N)c2=O)cc1 | inactive

Check the results log: what was the call for COc1c(-c2nc3ccc(N4CCN(C)CC4)nc3[nH]2)cc(OC)c2c1nc(COC(C)=O)n2C ?
inactive

Check the results log: what was the call for CC[C@H]1C=CCC[C@@]2(C[C@@H]3CC[C@@H]4[C@H](C(=O)OCCCCCCCCCCCCCCCC(=O)N(CCCN)C[C@@H](O)CCN)[C@]5(CCC[C@@H](C)O5)NC(=[N+]34)N2)O1 ?
active

Check the results log: what was the call for O=c1ccc2[n+]([O-])c3ccc(O)cc3oc-2c1 ?
inactive

Check the results log: what was the call for O=C1CSC2=NCC3(NN12)c1ccccc1-c1ccccc13 ?
inactive

Check the results log: what was the call for O=C1CCCC1CN1CCCC1 (configuration not stated) ?
inactive

Check the results log: what was the call for CC(C)(CC(O)C#N)/[N+]([O-])=[N+](\[O-])C(C)(C)CC(O)C#N (configuration not stated) ?
inactive

Check the results log: what was the call for COc1ccc(C2=Nn3c(nc4sc5c(c4c3=O)CCCC5)SC2)cc1 ?
inactive

---

System: COLO 205
assay summary: NCI tumour cell line growth inhibition, 48 h
The source made the active and inactive calls. Rule as the data show it: active = GI50 up to about 1.1 µM and inactive = higher.
Could you please report measured GI50 for the items listed next?

Look over these answered cases.
molecule | GI50
NNS(=O)(=O)c1ccc(/C=C2\NC(=O)NC2=O)cc1 | > 100 µM (inactive)
CCCCCCCCCCNC(=O)CCC(NC(=O)c1ccc(N(C)Cc2cnc3nc(N)nc(N)c3n2)cc1)C(=O)NCCCCCCCCCC (centres undefined) | 7.01 µM (inactive)
C/C(CCOC1CCCCO1)=C(\C)[Si](C)(C)C (centres undefined) | > 100 µM (inactive)

Please examine the following record next.
Give a short answer stating reported GI50 for CCCCCCCCCCCC(=O)OCC1OC(n2cc(F)c(=O)[nH]c2=O)C(N)C(OC(=O)CCCCCCCCCCC)C1O (centres undefined) .
68.4 µM (inactive)

---

Tested on: LOX IMVI
assay summary: NCI tumour cell line growth inhibition, 48 h
Activity calls are given as the source filed them. Cut-off read from the data, not from the text of the source: active = GI50 up to about 1.1 µM and inactive = higher.
Could you please pick one outcome from this set? label 1 (active), label 0 (inactive)

compound | system tested | group
CSc1ccc(C=C2N=C(c3ccccc3)N(c3cc(C(=O)c4ccccc4)ccc3N3C(=O)/C(=C/c4ccc(SC)cc4)N=C3c3ccccc3)C2=O)cc1 | LOX IMVI | label 0

Check the results log: what was the call for CC(C)[S+]1C2=C(CC(C)(C)CC2=O)[N-]c2ccccc21 (stereo unspecified) ?
label 0

Check the results log: what was the call for COc1ccc(OC(=O)N2C/C(=C\c3ccccc3)C(=O)/C(=C/c3ccccc3)C2)cc1 ?
label 1

---

Could you please report measured GI50 for the items listed next?
Test system: U-251
assay summary: NCI tumour cell line growth inhibition, 48 h
Active and inactive are the calls of the source. Cut-off read from the data, not from the text of the source: active = GI50 up to about 1.1 µM and inactive = higher.

Look over these answered cases.
compound | assay endpoint | experimental result
CCOC(=O)C(NC(=O)c1cccc(Cl)c1)(N1CCN(c2cc3c(cc2F)c(=O)c(C(=O)O)cn3C2CC2)CC1)C(F)(F)F (stereo not drawn) | GI50 | 5.24 µM (inactive)
CCOC(=O)c1cnc2[nH]ccn2c1=O | GI50 | > 10 µM (inactive)

Please examine the following record next.
Print U-251 GI50 for CCOC(=O)/C(C)=C\[C@@]1(C)O[C@@H](C)[C@@](C)(OC(C)=O)[C@@H]1OC(C)=O .
64.1 µM (inactive)
